target: T1, HLA-DQ2.5/secalin 1 peptide complex on Ba/F3 cells (human; rye); assay: FACS
T1 construct: also called Ba/F3-HLA-DQ2.5/secalin 1 peptide
Test readout: FIG. 30 FACS value (IC17=0, DQN0139bb=100)

# Binder, Reported result
data = [
    ("DQN0333hh (antibody, human IgG1, kappa, V domains shown, also called DQN0333Lh) VH: QSVEESGGRLVMPGGSLTLTCTASGFSLSSYYMNWVRQAPGKGLEWIGVIYSTDITDYATWATGRFTISKTSTTVDLKMTSLTAADTATYFCARELSPTTSGYIAYLWGPGTLVTVSS VL: AYDMTQTPASVEVAVGGTVTIKCQASQSISSYLAWYQQKPGQPPKLLIYSASTLASGVPSRFKGSGSGTQFTLTVIDVQCDDAATYYCQQTYSGKNVINTFGGGTKVEIKR", 110),
    ("DQN0282ff (antibody, human IgG1, kappa, V domains shown, also called DQN0282Hf; DQN0282Lf) VH: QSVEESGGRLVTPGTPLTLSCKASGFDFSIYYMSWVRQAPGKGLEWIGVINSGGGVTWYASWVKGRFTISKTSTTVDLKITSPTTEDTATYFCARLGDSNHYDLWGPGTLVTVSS VL: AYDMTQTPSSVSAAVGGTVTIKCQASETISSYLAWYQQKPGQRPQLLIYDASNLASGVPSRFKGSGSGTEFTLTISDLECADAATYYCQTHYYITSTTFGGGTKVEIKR", 49.6),
    ("DQN0225dd (antibody, human IgG1, kappa, V domains shown, also called DQN0225Hd; DQN0225Ld) VH: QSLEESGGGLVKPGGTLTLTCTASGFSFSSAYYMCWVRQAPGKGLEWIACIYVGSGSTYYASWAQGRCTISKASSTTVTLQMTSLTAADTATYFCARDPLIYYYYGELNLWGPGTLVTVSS VL: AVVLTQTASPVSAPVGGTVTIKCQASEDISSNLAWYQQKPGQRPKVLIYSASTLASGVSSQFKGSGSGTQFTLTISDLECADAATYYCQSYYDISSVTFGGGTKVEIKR", 77.2),
    ("DQN0344xx (antibody, human IgG1, kappa, V domains shown, also called DQN0344Hx; DQN0344Lx) VH: QSLEESGGGLVKPGGTLTLTCTASGFSFSSSYWMCWVRQAPGKGLEWVACVYGGSDTTYYASWTKGRFTISKGSSTTVALQVTSLTAADTATYFCARDPLNYYYYGELNLWGPGTLVTVSS VL: AVVLTQTASPVSAAVGGTVTIRCQATENIYSGLAWYQQKPGQPPKVLIYYVSTLASGVPSRFKGSGSGTEYTLTISGVQCDDAATYYCQTYHDISNVTFGGGTKVEIKR", 73.9),
    ("DQN0223hh (antibody, human IgG1, kappa, V domains shown, also called DQN0223Lh) VH: QQQLEESGGGLVKPGGTLTLTCKASRIDFSTYYYICWVRQSPWKGLEWIACIYSGDGYTYYPSWAKGRFSISKTSSTTVTLQVTSLTAADTATYFCARSYGGSSASAYFTLWGPGTQVTVSS VL: AVVLTQTASPVSAPVGGTVTIKCQASQSIGSNLGWYQQKPGQPPKLLIYGASALASGVPSRFKGSGSGTQFTLTINDLECADAATYYCQGYYYSSSAEWHSFGGGTKVEIKR", 47.6),
]
